Target: human GLP-1 receptor (Homo sapiens, UniProt P43220)
Construct: expressed in transfected cells
Sequence (P43220 24-463): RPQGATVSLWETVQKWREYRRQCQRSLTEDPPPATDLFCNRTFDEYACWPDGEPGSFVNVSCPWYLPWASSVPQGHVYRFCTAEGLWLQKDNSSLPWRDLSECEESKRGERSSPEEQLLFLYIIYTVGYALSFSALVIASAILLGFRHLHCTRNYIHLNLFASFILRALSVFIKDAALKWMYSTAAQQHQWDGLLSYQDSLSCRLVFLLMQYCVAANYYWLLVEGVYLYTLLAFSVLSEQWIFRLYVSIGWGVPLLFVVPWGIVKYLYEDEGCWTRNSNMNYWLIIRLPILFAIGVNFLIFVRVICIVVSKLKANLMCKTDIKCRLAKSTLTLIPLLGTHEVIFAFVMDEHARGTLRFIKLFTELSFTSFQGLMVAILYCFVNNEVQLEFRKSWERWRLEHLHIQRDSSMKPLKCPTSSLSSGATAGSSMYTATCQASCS
Assay: GLP-1R cAMP Assay (HitHunter cAMP accumulation)
Format: cell-based
Settings: cAMP accumulation, CHO cells stably overexpressing human GLP-1 receptor, 30 min treatment; read-out: EC50
pEC50: −log10 of the molar value.

- molecule: "O=C(O)c1ccc2nc(CN3CC=C(c4cccc(COc5ccc(Cl)cc5F)c4F)C3)n(C[C@@H]3CCO3)c2c1"
  pEC50: "6.30 to 7.30"
- molecule: "N#Cc1ccc(OCc2cc([C@H]3CCN(Cc4nc5c(F)cc(C(=O)O)cc5n4C[C@@H]4CCO4)C3)ccc2F)c(F)c1 (single isomer, unassigned)"
  pEC50: "> 7.30"
- molecule: "O=C(O)c1ccc2nc(CN3CC[C@H](Oc4ccnc(COc5ccc(Cl)cc5F)n4)C3)n(C[C@@H]3CCO3)c2c1"
  pEC50: "> 7.30"
- molecule: "CCn1cncc1Cn1c(CN2CCC(Cc3cccc4c3O[C@](C)(c3ccc(Cl)cc3F)O4)CC2)nc2ccc(C(=O)O)cc21 (single isomer, unassigned)"
  pEC50: "> 7.30"
- molecule: "O=C(O)c1ccc2nc(CN3CC=C(c4cc(COc5ccc(Cl)cc5F)ncc4F)C3)n(C[C@@H]3CCO3)c2c1"
  pEC50: "> 7.30"
- molecule: "O=C(O)c1cc(F)c2nc(Cc3ccc(Oc4ccnc(COc5ccc(Cl)cc5F)c4)cc3F)n(C[C@@H]3CCO3)c2c1"
  pEC50: "> 7.30"
- molecule: "N#CCC1(Cn2c(Cc3ccc(Oc4ccnc(COc5ccc(C#N)cc5F)n4)cc3F)nc3ccc(C(=O)O)cc32)CC1"
  pEC50: "> 7.30"
- molecule: "CCn1cncc1Cn1c(CN2C[C@H](Oc3ccnc(COc4ccc(Cl)cc4Cl)c3)[C@@H]2C)nc2ccc(C(=O)O)cc21"
  pEC50: "> 7.30"
- molecule: "N#Cc1cc(F)ccc1OCc1cc([C@@H]2CCN(Cc3nc4ccc(C(=O)O)cc4n3C[C@@H]3CCO3)C2)ccc1F"
  pEC50: "> 7.30"
- molecule: "N#CCC1(Cn2c(CN3CC[C@H](c4ccnc(COc5ccc(Cl)cc5F)c4)C3)nc3ccc(C(=O)O)cc32)CC1"
  pEC50: "6.30 to 7.30"
- molecule: "N#CCC1(Cn2c(CN3CC=C(c4nc(COc5ccc(Cl)cc5F)ccc4F)C3)nc3ccc(C(=O)O)cc32)CC1"
  pEC50: "> 7.30"
- molecule: "N#Cc1ccc(OCc2nc([C@@H]3CCN(Cc4nc5c(F)cc(C(=O)O)cc5n4C[C@@H]4CCO4)C3)ccc2F)c(F)c1"
  pEC50: "> 7.30"
- molecule: "CCn1cncc1Cn1c(CN2C[C@H](Oc3cccc(COc4ccc(Cl)cc4Cl)c3)[C@@H]2C)nc2ccc(C(=O)O)cc21"
  pEC50: "> 7.30"

====

Target: human GLP-1 receptor (Homo sapiens)
Construct: expressed in transfected cells
Experiment: GLP-1R cAMP Assay (HitHunter cAMP accumulation)
Format: cell-based
Conditions: cAMP accumulation, CHO cells stably overexpressing human GLP-1 receptor, 30 min treatment; read-out: EC50
EC50 overview
property-name: EC50

- compound: "O=C(O)c1ccc2nc(CN3CCC(c4cccc(Oc5ccccc5)c4)C3)n(C[C@@H]3CCO3)c2c1 (some centres unmarked)"
  value-reported: "50 to 500 nM"
- compound: "N#CCC1(Cn2c(CN3CC=C(c4ccc(F)c(COc5ccc(C#N)cc5F)n4)C3)nc3c(F)cc(C(=O)O)cc32)CC1"
  value-reported: "< 50 nM"
- compound: "CCn1cncc1Cn1c(CN2CC(Cc3cccc(COc4ccc(Cl)cc4Cl)c3)C2)nc2ccc(C(=O)O)cc21"
  value-reported: "< 50 nM"
- compound: "O=C(O)c1cc(F)c2nc(CN3CC[C@@H](c4ccnc(COc5ccc(Cl)cc5F)c4)C3)n(C[C@@H]3CCO3)c2c1"
  value-reported: "< 50 nM"
- compound: "O=C(O)c1cc(F)c2nc(CN3CC[C@H](Oc4cccc(COc5ccc(Cl)cc5F)c4)C3)n(C[C@@H]3CCO3)c2c1"
  value-reported: "< 50 nM"
- compound: "N#CCC1(Cn2c(CN3CC=C(c4ccc(F)c(COc5ccc(Cl)cc5F)n4)C3)nc3c(F)cc(C(=O)O)cc32)CC1"
  value-reported: "< 50 nM"
- compound: "CC1(c2ccc(Cl)cn2)Oc2cccc(CC3CCN(Cc4nc5ccc(C(=O)O)cc5n4C[C@@H]4CCO4)CC3)c2O1 (some centres unmarked)"
  value-reported: "50 to 500 nM"
- compound: "N#CCC1(Cn2c(CN3CC[C@@H](c4ccnc(COc5ccc(Cl)cc5F)c4)C3)nc3c(F)cc(C(=O)O)cc32)CC1"
  value-reported: "< 50 nM"
- compound: "N#CCC1(Cn2c(CN3CC[C@@H](c4ccnc(COc5ccc(Cl)cc5F)c4)C3)nc3ccc(C(=O)O)cc32)CC1"
  value-reported: "< 50 nM"
- compound: "O=C(O)c1ccc2nc(CN3CCC(c4cc(F)cc(COc5ccc(Cl)cc5F)c4)C3)n(C[C@@H]3CCO3)c2c1 (some centres unmarked)"
  value-reported: "< 50 nM"
- compound: "CCn1cncc1Cn1c(CN2CC(Cc3cnc(COc4ccc(Cl)cc4C#N)o3)C2)nc2ccc(C(=O)O)cc21"
  value-reported: "< 50 nM"
- compound: "CCn1cncc1Cn1c(CN2CC(Oc3cccc(COc4ccc(Cl)cc4C#N)c3)C2)nc2ccc(C(=O)O)cc21"
  value-reported: "< 50 nM"
- compound: "C[C@H]1[C@@H](Oc2ccnc(COc3ccc(C#N)cc3F)n2)CN1Cc1nc2c(F)cc(C(=O)O)cc2n1C[C@@H]1CCO1"
  value-reported: "< 50 nM"
- compound: "O=C(O)c1ccc2nc(CN3CC=C(c4cc(COc5ccc(Cl)cc5F)ccn4)C3)n(Cc3ncco3)c2c1"
  value-reported: "50 to 500 nM"

====

Target: human GLP-1 receptor (Homo sapiens)
Construct: expressed in transfected cells
Assay: GLP-1R cAMP Assay (HitHunter cAMP accumulation)
Format: cell-based
Details: cAMP accumulation, CHO cells stably overexpressing human GLP-1 receptor, 30 min treatment; read-out: EC50
pEC50: −log10 of the molar value.
pEC50 overview

- molecule: "O=C(O)c1ccc2nc(CN3CCC(c4ccnc(COc5ccc(Cl)cc5Cl)c4)C3)n(C[C@@H]3CCO3)c2c1 (stereo partly drawn)"
  pEC50: "> 7.30"
- molecule: "O=C(O)c1ccc2nc(CN3CC[C@@H](c4cccc(COc5ccc(Cl)cc5F)c4)C3)n(C[C@@H]3CCO3)c2c1 (single isomer, unassigned)"
  pEC50: "> 7.30"
- molecule: "N#Cc1ccc(OCc2nc(C3=CCN(Cc4nc5ccc(C(=O)O)cc5n4CC4(CC(N)=O)CC4)C3)ccc2F)c(F)c1"
  pEC50: "6.30 to 7.30"

====

Target: human GLP-1 receptor (Homo sapiens, UniProt P43220)
Construct: expressed in transfected cells
Assay: GLP-1R cAMP Assay (HitHunter cAMP accumulation)
Type: cell-based
Conditions: cAMP accumulation, CHO cells stably overexpressing human GLP-1 receptor, 30 min treatment; read-out: EC50
EC50 overview
property-name: EC50

- molecule: "O=C(O)c1ccc2nc(CN3CC=C(c4cccc(COc5ccc(Cl)cc5Cl)c4)C3)n(C[C@@H]3CCO3)c2c1"
  study-system: "human GLP-1 receptor (Homo sapiens, UniProt P43220)"
  property-name: "EC50"
  value-reported: "< 50 nM"
- molecule: "CC1(c2ccc(Cl)cn2)Oc2cccc(CC3CN(Cc4nc5ccc(C(=O)O)cc5n4C[C@@H]4CCO4)C3)c2O1 (stereo partly shown)"
  study-system: "human GLP-1 receptor (Homo sapiens, UniProt P43220)"
  property-name: "EC50"
  value-reported: "> 500 nM"
- molecule: "CCn1cncc1Cn1c(CN2CC(=Cc3cccc(COc4ccc(Cl)cc4Cl)c3)C2)nc2ccc(C(=O)O)cc21"
  study-system: "human GLP-1 receptor (Homo sapiens, UniProt P43220)"
  property-name: "EC50"
  value-reported: "< 50 nM"
- molecule: "N#Cc1ccc(OCc2nc([C@@]34C[C@@H]3CN(Cc3nc5c(F)cc(C(=O)O)cc5n3C[C@@H]3CCO3)C4)ccc2F)c(F)c1"
  study-system: "human GLP-1 receptor (Homo sapiens, UniProt P43220)"
  property-name: "EC50"
  value-reported: "< 50 nM"
- molecule: "CCn1cncc1Cn1c(CN2CC(Cc3cnc(COc4ccc(Cl)cc4Cl)o3)C2)nc2ccc(C(=O)O)cc21"
  study-system: "human GLP-1 receptor (Homo sapiens, UniProt P43220)"
  property-name: "EC50"
  value-reported: "< 50 nM"
- molecule: "C[C@H]1[C@@H](Oc2ccnc(COc3ccc(F)cc3F)n2)CN1Cc1nc2ccc(C(=O)O)cc2n1C[C@@H]1CCO1"
  study-system: "human GLP-1 receptor (Homo sapiens, UniProt P43220)"
  property-name: "EC50"
  value-reported: "< 50 nM"
- molecule: "O=C(O)c1ccc2nc(CN3CC(Cc4ccnc(COc5ccc(Cl)cc5Cl)c4)C3)n(C[C@H]3CCOC3)c2c1"
  study-system: "human GLP-1 receptor (Homo sapiens, UniProt P43220)"
  property-name: "EC50"
  value-reported: "< 50 nM"
